Each recorded value in this set is attributed to paper PMC7941214.

Tested on: A549 cells
Test: Cytotoxicity assay
Type: cell-based, human
Conditions: read-out: IC50 against A549 cells; means ± SEM from two independent experiments
pIC50: −log10 of the molar value.
Measured pIC50, listed per entry for reference.

{"compound": "C[PH](C)(C)[Au][S]CCO", "measurementTarget": "A549 cells", "pIC50": 4.45}
{"compound": "CC(=O)OCC1O[C@@H]([S][Au-][P+](C)(C)C)C(OC(C)=O)[C@@H](OC(C)=O)[C@@H]1OC(C)=O (stereo partly drawn)", "measurementTarget": "A549 cells", "pIC50": 4.69}
{"compound": "CC[PH](CC)(CC)[Au][S][C@@H]1O[C@H](COC(C)=O)[C@@H](OC(C)=O)[C@H](OC(C)=O)[C@H]1OC(C)=O [Compound 1, reference compound]", "measurementTarget": "A549 cells", "pIC50": 4.95}

----------
Tested on: K. pneumoniae ATCC 700603
Assay: Broth microdilution MIC/MBC, K. pneumoniae
Format: cell-based, Klebsiella pneumoniae
Conditions: value before the parentheses; two values = two repeats
Measured MIC K. pneumoniae ATCC 700603, listed per entry for reference.
resultType: MIC K. pneumoniae ATCC 700603 (µM)

{"compound": "CC(=O)NC1C([S][Au][PH](C)(C)C)OC(CO)C(O)C1O (stereo not drawn) [Compound 39]", "resultType": "MIC K. pneumoniae ATCC 700603", "unitName": "µM", "qualifierSign": "=", "val": 31}
{"compound": "COc1ccc([P+]([Au-][S][C@@H]2OC(COC(C)=O)[C@@H](OC(C)=O)[C@H](OC(C)=O)C2OC(C)=O)(c2ccc(OC)cc2)c2ccc(OC)cc2)cc1 (stereo partly drawn) [Compound 34]", "resultType": "MIC K. pneumoniae ATCC 700603", "unitName": "µM", "qualifierSign": ">", "val": 281}
{"compound": "CC[PH](CC)(CC)[Au][S]C1OC(CO)C(O)C(O)C1O (stereo not drawn) [Compound 11]", "resultType": "MIC K. pneumoniae ATCC 700603", "unitName": "µM", "qualifierSign": "=", "val": 502}
{"compound": "CC[P+](CC)(CC)[Au-][S]c1ccc([N+](=O)[O-])cc1 [Compound 19]", "resultType": "MIC K. pneumoniae ATCC 700603", "unitName": "µM", "qualifierSign": ">", "val": 546}
{"compound": "CC[PH](CC)(CC)[Au][S][C@@H]1O[C@H](COC(C)=O)[C@@H](OC(C)=O)[C@H](OC(C)=O)[C@H]1OC(C)=O [Compound 1, reference compound]", "resultType": "MIC K. pneumoniae ATCC 700603", "unitName": "µM", "qualifierSign": "=", "val": 377}
{"compound": "COc1ccc([P+]([Au-][Cl])(c2ccc(OC)cc2)c2ccc(OC)cc2)cc1 [Compound 28]", "resultType": "MIC K. pneumoniae ATCC 700603", "unitName": "µM", "qualifierSign": ">", "val": 438}
{"compound": "CC[P+](CC)(CC)[Au-][S]CC(=O)OC [Compound 22]", "resultType": "MIC K. pneumoniae ATCC 700603", "unitName": "µM", "qualifierSign": "=", "val": 76}
{"compound": "CC[PH](CC)(CC)[Au][S]c1ccc(N)cc1 [Compound 17]", "resultType": "MIC K. pneumoniae ATCC 700603", "unitName": "µM", "qualifierSign": "=", "val": 36}
{"compound": "[Cl][Au].c1ccc(P(c2ccccc2)c2ccccc2)cc1 [Compound 27, (Triphenylphosphine)gold Chloride]", "resultType": "MIC K. pneumoniae ATCC 700603", "unitName": "µM", "qualifierSign": ">", "val": 518}
{"compound": "CC(=O)OCC1O[C@@H]([S][Au-][P+](c2ccc(F)cc2)(c2ccc(F)cc2)c2ccc(F)cc2)C(OC(C)=O)[C@@H](OC(C)=O)[C@@H]1OC(C)=O (stereo partly drawn) [Compound 35]", "resultType": "MIC K. pneumoniae ATCC 700603", "unitName": "µM", "qualifierSign": ">", "val": 292}
{"compound": "CC[PH](CC)(CC)[Au][S]C1OC(CO)C(OC2OC(CO)C(O)C(O)C2O)C(O)C1O (stereo not drawn) [Compound 14]", "resultType": "MIC K. pneumoniae ATCC 700603", "unitName": "µM", "qualifierSign": ">", "val": 381}
{"compound": "CCCC[PH](CCCC)(CCCC)[Au][Cl] [Compound 26, (Tri-n-butylphosphine)gold Chloride]", "resultType": "MIC K. pneumoniae ATCC 700603", "unitName": "µM", "qualifierSign": "=", "val": 147}
{"compound": "CC[P+](CC)(CC)[Au-][S][C@@H]1OC(CO)[C@@H](O)[C@H](O)C1NC(C)=O (stereo partly drawn) [Compound 12]", "resultType": "MIC K. pneumoniae ATCC 700603", "unitName": "µM", "qualifierSign": "=", "val": 464}
{"compound": "CC[PH](CC)(CC)[Au][S]c1ccccc1 [Compound 15]", "resultType": "MIC K. pneumoniae ATCC 700603", "unitName": "µM", "qualifierSign": ">", "val": 603}
{"compound": "CC[P+](CC)(CC)[Au-][S]CCO [Compound 21]", "resultType": "MIC K. pneumoniae ATCC 700603", "unitName": "µM", "qualifierSign": "=", "val": 20}
{"compound": "C[PH](C)(C)[Au][S]C1OC(CO)C(O)C(O)C1O (stereo not drawn) [Compound 38]", "resultType": "MIC K. pneumoniae ATCC 700603", "unitName": "µM", "qualifierSign": "=", "val": 34}
{"compound": "CC[PH](CC)(CC)[Au][S]C1OC(CO)C(O)C(O)C1O (stereo not drawn) [Compound 10]", "resultType": "MIC K. pneumoniae ATCC 700603", "unitName": "µM", "qualifierSign": "=", "val": 251}
{"compound": "FC(F)(F)c1ccc(P(c2ccc(C(F)(F)F)cc2)c2ccc(C(F)(F)F)cc2)cc1.[Cl][Au] [Compound 30]", "resultType": "MIC K. pneumoniae ATCC 700603", "unitName": "µM", "qualifierSign": ">", "val": 366}
